Conditions: buffer; pH 7.4; 200.0 µM
outcome measure: solubility kinetic (µg/mL)

{"compound": "COc1ccc(C(=O)C2CCCN(C(=O)C3=CCCC3)C2)cc1OC (configuration not stated)", "outcome measure": "solubility kinetic", "qualifier operator": ">", "recorded value": 51.5}
{"compound": "CC(NCc1cccnc1)c1ccccc1 (configuration not stated)", "outcome measure": "solubility kinetic", "qualifier operator": ">", "recorded value": 31.8}
{"compound": "Cc1cc(SCc2cccc([N+](=O)[O-])c2)nc(=O)[nH]1", "outcome measure": "solubility kinetic", "qualifier operator": "=", "recorded value": 35.3}
{"compound": "CC(C)(CCl)C(=O)Nc1ccnc(-c2ccncc2)n1", "outcome measure": "solubility kinetic", "qualifier operator": "=", "recorded value": 6}
{"compound": "COC(=O)CN(c1cccc(C)c1)S(=O)(=O)c1ccccc1", "outcome measure": "solubility kinetic", "qualifier operator": "=", "recorded value": 41.7}
{"compound": "O=C(COC(=O)CNC(=O)c1ccccc1F)Nc1ccc(Cl)cn1", "outcome measure": "solubility kinetic", "qualifier operator": "=", "recorded value": 22.2}
{"compound": "NC(=O)c1cccnc1OCC(F)(F)F", "outcome measure": "solubility kinetic", "qualifier operator": ">", "recorded value": 33}
{"compound": "CNC(=O)/C(C#N)=C/c1ccc(OCCOc2ccccc2)cc1", "outcome measure": "solubility kinetic", "qualifier operator": "=", "recorded value": 2.3}
{"compound": "COc1ccc(Cl)cc1Nc1nc(N)c2ccccc2n1.Cl", "outcome measure": "solubility kinetic", "qualifier operator": "=", "recorded value": 5.3}
{"compound": "CC1Cc2ccccc2N1C(=O)COc1ccc2c(c1)OCO2 (configuration not stated)", "outcome measure": "solubility kinetic", "qualifier operator": "=", "recorded value": 43.1}
{"compound": "Cc1ccsc1C(=O)OCC(=O)NCc1ccco1", "outcome measure": "solubility kinetic", "qualifier operator": "=", "recorded value": 41.1}
{"compound": "COc1ccc(C(=O)O/N=C(\\N)Cc2cccs2)cc1OC", "outcome measure": "solubility kinetic", "qualifier operator": ">", "recorded value": 48.1}

---

Conditions: buffer; pH 7.4; 200.0 µM
Listed below: solubility kinetic values for each entry.

{"molecule": "O=C(NCC(O)c1ccccc1)c1ccccc1 (stereo unspecified)", "solubility kinetic": "> 36.2 µg/mL"}
{"molecule": "Cc1cc(C)c(NC(=O)COC(=O)C23CC4CC(CC(O)(C4)C2)C3)c(Cl)c1", "solubility kinetic": "> 58.8 µg/mL"}
{"molecule": "Cc1ccc(SCCC(=O)Nc2cc(C)on2)cc1", "solubility kinetic": "1.3 µg/mL"}
{"molecule": "O=C(O)COCC(=O)N1CCCN(c2nc3ccc(Cl)cc3s2)CC1", "solubility kinetic": "> 57.6 µg/mL"}
{"molecule": "CSc1ccccc1C(=O)Nc1ccccc1C(=O)NC(C)C", "solubility kinetic": "> 49.3 µg/mL"}
{"molecule": "CCN(c1ccccc1)S(=O)(=O)c1ccc(Cl)c(C(=O)O)c1", "solubility kinetic": "> 51 µg/mL"}

---

Details: buffer; pH 7.4; 200.0 µM
Assign class by solubility kinetic: not lower than 20 µg/mL means true; lower than 20 µg/mL means false.

{"molecule": "CCCCNC1c2ccccc2C(=O)N1Cc1ccccc1.Cl (centres undefined)", "class assignment": "true"}
{"molecule": "CSc1ncccc1C(=O)N1CCN(S(=O)(=O)c2ccc3c(c2)OCCO3)CC1", "class assignment": "true"}
{"molecule": "CCNC(=O)Cc1ccc(S(=O)(=O)N2CCOCC2)s1", "class assignment": "true"}
{"molecule": "Cc1ccc(C(C)C)c(OCCOCCN2CCNCC2)c1.O=C(O)C(=O)O", "class assignment": "true"}
{"molecule": "CCCc1nc(NCCO)c(C#N)c2c1CCCC2", "class assignment": "true"}
{"molecule": "CC(C)(C)C(=O)/C=C1\\SCC(=O)N1CC(=O)N1CCN(c2ccccc2)CC1", "class assignment": "true"}
{"molecule": "Cc1cc(NC(=O)CS(=O)(=O)c2ccc(Cl)cc2)no1", "class assignment": "false"}
{"molecule": "CC(=O)c1c(C)[nH]c(C(=O)N2CCCC(C)C2)c1C (centres undefined)", "class assignment": "true"}
{"molecule": "O=C(/C=C/c1ccco1)N1CCN(S(=O)(=O)c2ccccc2)CC1", "class assignment": "true"}
{"molecule": "O=C(CNc1cc(S(=O)(=O)N2CCOCC2)ccc1N1CCOCC1)Nc1cccc(C(F)(F)F)c1", "class assignment": "false"}
{"molecule": "CSCC(CO)NS(=O)(=O)c1ccc(C)cc1 (centres undefined)", "class assignment": "true"}
{"molecule": "O=S(=O)(NC1=NCCCCC1)c1ccc(F)cc1", "class assignment": "true"}
{"molecule": "CCN(CC)c1ccc(/C=C2\\SC(N)=NC2=O)cc1", "class assignment": "false"}
{"molecule": "CC(=O)c1ccc(-n2c(CCC(=O)O)ccc2-c2ccccc2)cc1", "class assignment": "true"}
{"molecule": "Cn1c(N2CCOCC2)c(C=O)c2ccccc21", "class assignment": "true"}
{"molecule": "O=C(OCc1cc(=O)n2ccsc2n1)c1ccccc1O", "class assignment": "true"}
{"molecule": "Nc1nc(NCC2CCCO2)nc(Nc2cccc(F)c2)c1[N+](=O)[O-] (centres undefined)", "class assignment": "false"}
{"molecule": "O=c1c2ccccc2[nH]c2ccccc12", "class assignment": "false"}
{"molecule": "O=C1CC(NCCc2ccccc2)C(=O)N1CCc1ccccc1 (centres undefined)", "class assignment": "true"}
{"molecule": "COc1ccc(CC(=O)OCC(=O)NC2CCCC(C)C2C)cc1 (centres undefined)", "class assignment": "true"}
{"molecule": "COc1cccc(NC(=O)NCc2ccccn2)c1", "class assignment": "true"}
{"molecule": "C=CCn1cccc(C(=O)Nc2ccc(Cl)cc2)c1=O", "class assignment": "false"}
{"molecule": "c1csc(-c2nc(N3CCCCC3)no2)c1", "class assignment": "false"}
{"molecule": "CCOP(=O)(OCC)C(NC(=O)Nc1ccc(C)cc1)C(N)=O (centres undefined)", "class assignment": "true"}
{"molecule": "CCOC(=O)C1=C(O)C(=O)N(c2ccccc2)C1c1cccc([N+](=O)[O-])c1 (centres undefined)", "class assignment": "true"}
{"molecule": "CC(C)Cc1nnc(NC(=O)CCC(=O)N2CCCCC2)s1", "class assignment": "true"}
{"molecule": "COc1ccc(S(=O)(=O)N2CCN(c3cnccn3)CC2)cc1", "class assignment": "true"}
{"molecule": "CCC(C)NC(=O)c1cc2c(=O)n3cccc(C)c3nc2s1 (centres undefined)", "class assignment": "true"}
{"molecule": "CN(C(=O)c1ccco1)c1nc(-c2ccc(F)cc2)cs1", "class assignment": "false"}
{"molecule": "CCCCCCC(=O)Nc1ccc(Br)cn1", "class assignment": "false"}
{"molecule": "COc1cccc2cc(C(=O)N3CCCc4ccccc43)oc12", "class assignment": "false"}
{"molecule": "O=C(O)c1ccc(S(=O)(=O)c2ccc([N+](=O)[O-])cc2[N+](=O)[O-])cc1", "class assignment": "true"}
{"molecule": "O=C(O)c1cccc(S(=O)(=O)Nc2ccc([N+](=O)[O-])cc2O)c1", "class assignment": "true"}
{"molecule": "O=C(COC(=O)c1ccccc1Nc1ccccc1F)c1ccccc1", "class assignment": "false"}
{"molecule": "O=C1CSC(=S)N1c1cccc(F)c1", "class assignment": "false"}
{"molecule": "O=C(COc1ccc(F)c(Cl)c1)N1CCCCCCC1", "class assignment": "true"}
{"molecule": "C=CCn1c(O)c(C=Nc2ccc(F)cc2)c(=O)[nH]c1=O", "class assignment": "false"}
{"molecule": "CCOC(=O)C(=O)N(CC)C1CCS(=O)(=O)C1 (centres undefined)", "class assignment": "true"}
{"molecule": "CN(C)Cc1cccc([N+](=O)[O-])c1O", "class assignment": "true"}
{"molecule": "NC(=O)C1(C(N)=O)OC1c1ccccc1 (centres undefined)", "class assignment": "true"}
{"molecule": "CCCc1cc(=O)[nH]c(NCCc2ccccc2)n1", "class assignment": "true"}
{"molecule": "COc1ccc(CNC(=S)Nc2cccc(OC)c2)cc1", "class assignment": "true"}
{"molecule": "O=C(CSCc1ccccc1)NCCc1ccc(F)cc1", "class assignment": "true"}
{"molecule": "O=Cc1ccc(-c2cccc([N+](=O)[O-])c2)o1", "class assignment": "false"}
{"molecule": "O=C(NCc1ccncc1)c1cc(F)c(F)cc1Cl", "class assignment": "true"}
{"molecule": "O=C(CCN1C(=O)C2C3CCC(C3)C2C1=O)OCC(=O)c1ccccc1 (centres undefined)", "class assignment": "true"}
{"molecule": "O=C(c1ccc([N+](=O)[O-])s1)N1CCc2ccccc21", "class assignment": "false"}
{"molecule": "CCN1CCc2c(OCC(=O)Nc3ccc4c(c3)OCCO4)cccc2C1=O", "class assignment": "true"}
{"molecule": "O=C(CCSCc1ccc(Cl)cc1)NCc1cccs1", "class assignment": "true"}
